- tested target: T1, human TIGIT on Jurkat cells (TIGIT/NFAT reporter Jurkat cells, BPS Bioscience #60538); Promega TIGIT Effector … (human, UniProt Q495A1 22-244)
- T1 construct: whole, on cells; Same protein on two bought Jurkat lines (flow cytometry: BPS; bioassay: Promega); also called hu TIGIT cells; cells expressing human TIGIT
- T1 sequence (looked up): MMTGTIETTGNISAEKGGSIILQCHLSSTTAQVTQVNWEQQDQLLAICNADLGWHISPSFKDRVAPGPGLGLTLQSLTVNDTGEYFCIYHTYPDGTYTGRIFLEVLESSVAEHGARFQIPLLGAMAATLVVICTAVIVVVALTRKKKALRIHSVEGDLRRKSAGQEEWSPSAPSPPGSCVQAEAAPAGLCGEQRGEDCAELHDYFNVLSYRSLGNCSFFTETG
- protocol notes: flow cytometry, TIGIT/NFAT Jurkat cells, 10 ug/ml
metric name: MFI (MFI)
One number for each entry, in MFI.

Example entries and their recorded answers appear below.
43586p2.B05 (scFv, V domains shown) VH: EVQLLESGGGLVQPGGSLRLSCAASGFTFSDYYMNWVRQAPGKGLEYVASINWNGGTTYYADSVKGRFTISRDNSKNTLYLQMSSLRAEDTAVYYCAKDQNWNFYYGMDVWGQGTTVTVSS VL: QSVLTQPPSASGTPGQRVTISCSGGSSNIGNNFVSWYQQLPGTAPKLLIYNEIKRPSGVPDRFSASKSGTSASLAISGLQSEDEADYYCASWDGSLRGWVFGGGTKLTVL; 9320
43645p1.E3 (scFv, V domains shown) VH: EVQLLESGGGLVQPGGSLRLSCAASGFTFSSYAMSWVRQAPGKGLEWVSAIYFDGSIYDADSVKGRFTISRDNSKNTLYLQMNSLRDEDTAVYYCAKSHTVLQYGMDVWGQGTTVTVSS VL: QSVLTQPPSASGTPGQRVTISCSGVTSNIRNSYVSWYQQLPGTAPKLLIYGNDQRPSGVPDRFSGSKSGTSASLAISGLQSEDEADYYCGTWDNTLNAWVFGGGTKLTVL; 9950

Would you mind giving MFI for every binder in the list below?
1. 43586p2.F10 (scFv, V domains shown) VH: VESGGGLVQPGGSLRLSCAASGFTVSDHYVSWVRQAPGKGLEWVSTSSSTNWNDGRTYYADSVKGRFTISRDNSENTLYLQMNSLRAEDTAVYYCAKDQYKGNDYYYYGMDVWGQGTTVTVSS VL: QSVLTQPPSASGTPGQRVTISCSASNSYIGTKYFYWYQQLPGTAPKLLIYLDSQRPSGVPDRFSGSKSGTSVSLAISGLQSEDEADYYCAFWDDHLHGWVFGGGTKLTVL
2. 43586p1.1.H8 (scFv, V domains shown) VH: EVQLLESGGGLVQPGGSLRLSCAASGFTFIDFWMSWVRQAPGKGLEWVSAISWIGDTYYYADSVKGRFTVSRDNSKNTVYLQMNSLRAEDTAVYYCAKHWTVYQYGMDVWGQGTTVTVSS VL: QSVLTQPPSASGTPGQRVIISCSGSTSDIETKYVSWYQQLPGTAPKLLIYGNHQRPSGVPDRFSGSKSGTSASLAISGLQSEDEADYYCTAWDNTLKSWVFGGGTKLTVL
3. 43586p1.2.A4 (scFv, V domains shown) VH: EVQLLESGGGLVQPGGSLRLSCAASGFTVSDHHMSWVRQAPGKGLEWVSGIDPGGKTYYVDSVKGRFTISRDNSKNTLYLQMNSLRAEDTAVYYCAREQYDWNDDMDVWGQGTTVTVSS VL: QSVLTQPPSASGTPGQRVTISCSGSRSNVGDHYVSWYQQFPGTAPKLLIYANYQRPSGVPDRFSGSKSGTSASLAISGLQSEDEADHYCASWDASLNVWVFGGGTKLTVL

14400
9170
13700
